Test system: A549
testDescription: Inhibition of non-small-cell lung adenocarcinoma (A549) after 48-h treatment
Format: functional, cell-based
conditionNotes: Homo sapiens, A549, 48 h
measureName: IC50

> print(dat)
                                 smilesdata  result
1  CCCCCCCCCCCCCCCCOC[C@H](COC)COP(=O)([O-])OCC[N+](C)(C)C  7.5 µM
